- Tested on: NCI/ADR-RES
- Assay type: cell-based
- assay_setup: NCI/ADR-RES; 10^−5 molar
measurement_label: Growth percent
Answers without a unit are incomplete; give the number and then its unit.

compound	measurement_label	assay_value
CN(C)CCCNc1nc2ccccc2c2c(=O)c3cc(Cl)ccc3sc12 [Compound N17]	Growth percent	96.94%

Sample O=c1c2cc(Cl)ccc2sc2c(NCCN3CCOCC3)nc3ccccc3c12 [Compound N16] — what was its Growth percent?
77.03%

# query: Growth percent of entry COc1ccc(CCNc2nc3ccccc3c3c(=O)c4cc(Cl)ccc4sc23)cc1 [Compound N31]
103.78%

###

As shown below, each of these molecules has a reported Growth percent value.
- System: UACC-257
- Assay type: cell-based
- assay_setup: UACC-257; 10^−5 molar
// units = %; emit number, no label

Example cases with answers are listed next.
O=c1c2cc(Cl)ccc2sc2c(NCCCNCCO)nc3ccccc3c12 45.70
COc1ccc(CCNc2nc3ccccc3c3c(=O)c4cc(Cl)ccc4sc23)cc1 98.66
CN(C)CCCNc1nc2ccccc2c2c(=O)c3cc(Cl)ccc3sc12 107.40

I'm curious: which Growth percent was measured for O=c1c2cc(Cl)ccc2sc2c(NCc3ccccc3)nc3ccccc3c12 tested on UACC-257?
83.24

Give the reported Growth percent for O=c1c2cc(Cl)ccc2sc2c(NCCN3CCOCC3)nc3ccccc3c12 (system: UACC-257).
106.52

What reported Growth percent corresponds to O=c1c2cc(Cl)ccc2sc2c(NCCc3ccccc3)nc3ccccc3c12 on UACC-257?
109.29

What value of Growth percent on UACC-257 does O=c1c2cc(Cl)ccc2sc2c(NC3CCCCC3)nc3ccccc3c12 have?
103.68
